Provenance of the data: patent US8933235B2

system-under-test: endothelial lipase (EL) (Homo sapiens, UniProt Q9Y5X9)
Construct: Conditioned media obtained from HT-1080 cells, which were transformed by RAGE technology (Athersys) to overexpress endogenous EL; endogenous in cells; conditioned medium used as the enzyme source
Sequence (Q9Y5X9 21-500): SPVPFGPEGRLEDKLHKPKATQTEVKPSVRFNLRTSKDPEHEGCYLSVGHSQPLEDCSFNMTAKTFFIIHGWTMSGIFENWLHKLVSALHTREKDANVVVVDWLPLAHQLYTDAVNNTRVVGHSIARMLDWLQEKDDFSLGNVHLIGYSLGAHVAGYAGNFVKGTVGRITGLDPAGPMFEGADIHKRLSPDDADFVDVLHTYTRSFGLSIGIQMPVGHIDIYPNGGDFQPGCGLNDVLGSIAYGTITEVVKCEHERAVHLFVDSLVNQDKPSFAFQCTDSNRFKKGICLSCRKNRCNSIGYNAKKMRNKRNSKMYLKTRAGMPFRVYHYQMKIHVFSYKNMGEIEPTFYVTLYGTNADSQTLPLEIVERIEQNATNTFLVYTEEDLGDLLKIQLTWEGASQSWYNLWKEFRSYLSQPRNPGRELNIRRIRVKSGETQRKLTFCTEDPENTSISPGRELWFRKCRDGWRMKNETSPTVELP
assay-details: Endothelial lipase (EL) enzymatic assay with fluorescent substrate A10070 in DMPG vesicles
study-conditions: conditioned media from HT-1080 cells overexpressing endogenous EL; 20 min preincubation at 37° C.; read-out: HLE_EL_CRC IC50
pIC50: −log10 of the molar value.
Attribute: pIC50

1) Cn1c(-c2cc(F)cc(C(F)(F)F)c2)cc(C(=O)NCCCOc2ccc(Cl)c(Cl)c2)c(O)c1=O [Example 77] :: > 8.00
2) Cn1c(-c2cc(F)cc(C(F)(F)F)c2)cc(C(=O)NCCCOc2ccc(F)cc2)c(O)c1=O [Example 64] :: > 8.00

Here is another compound to look at.
Reported pIC50, compound Cn1c(-c2cc(F)cc(F)c2)cc(C(=O)NCCCc2ccc(Cl)c(Cl)c2)c(O)c1=O [Example 19] : ____ > 8.00

----------
system-under-test: endothelial lipase (EL) (Homo sapiens, UniProt Q9Y5X9)
Construct: Conditioned media obtained from HT-1080 cells, which were transformed by RAGE technology (Athersys) to overexpress endogenous EL; endogenous in cells; conditioned medium used as the enzyme source
assay-details: Endothelial lipase (EL) enzymatic assay with fluorescent substrate A10070 in DMPG vesicles
study-conditions: conditioned media from HT-1080 cells overexpressing endogenous EL; 20 min preincubation at 37° C.; read-out: HLE_EL_CRC IC50
endpoint: IC50 (nM)

The following compounds have reported results that may help.
1. CC(C)OCCNc1c(C(=O)NCCCc2ccc(Cl)c(Cl)c2)ccn(C)c1=O :: 210
2. CC(C)C(CCc1ccc(Cl)c(Cl)c1)NC(=O)c1ccn(C)c(=O)c1O (single isomer, unassigned) [Example 114] :: 6860
3. COc1ccc(CCNC(=O)c2cc(-c3cc(F)cc(C(F)(F)F)c3)n(C)c(=O)c2O)cc1 :: 178

[a] CC(CCc1ccccc1)NC(=O)c1ccn(C)c(=O)c1O (stereo not shown)
[b] COc1c(C(=O)NCCCc2ccc(Cl)c(Cl)c2)ccn(C)c1=O
[c] Cn1c(-c2cccc(C(=O)O)c2)cc(C(=O)NCCCc2ccc(Cl)c(Cl)c2)c(O)c1=O
Provide the items ranked by increasing IC50. Write the labels out in the order the request specifies. c, a, b
(c: 199 nM, a: 2460 nM, b: 5820 nM)
